Published IC50 for Adenosine receptor A2b (Homo sapiens), assembled from different documents, is shown next.
Molecular target: Adenosine receptor A2b (Homo sapiens)
Sequence (P29275 whole entry): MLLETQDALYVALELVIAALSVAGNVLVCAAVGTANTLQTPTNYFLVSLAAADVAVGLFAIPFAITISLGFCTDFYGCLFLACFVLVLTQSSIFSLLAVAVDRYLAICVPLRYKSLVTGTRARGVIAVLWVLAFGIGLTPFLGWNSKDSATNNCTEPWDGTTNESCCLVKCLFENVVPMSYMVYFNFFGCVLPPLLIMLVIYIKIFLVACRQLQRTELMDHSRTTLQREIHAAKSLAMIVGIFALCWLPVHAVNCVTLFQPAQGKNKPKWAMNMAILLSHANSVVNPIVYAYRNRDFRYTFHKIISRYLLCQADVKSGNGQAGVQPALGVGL

Sample answers from the record:
compound=CCn1nc(-c2cccc(-c3cccc(C(=O)NCCN4CCCCC4)c3)c2)cc(NC(=O)Nc2c(Cl)cncc2Cl)c1=O measurementtype=IC50 recordedmeasurement="0.169 µM"
compound=C[C@H](Nc1nc(C(=O)N[C@H]2CC[C@@H](O)C2)c2sccc2n1)c1ccccn1 measurementtype=IC50 recordedmeasurement="< 0.01 µM"
compound=CCS(=O)(=O)Nc1ccc(Oc2ccc(F)cc2F)c(-c2cn(C)c(=O)c3[nH]ccc23)c1 measurementtype=IC50 recordedmeasurement="2.6 µM"
compound="CCC(Nc1nc(C(=O)NCc2ccc(OC)nc2)c2sccc2n1)c1cccnc1 (stereo not drawn)" measurementtype=IC50 recordedmeasurement="> 0.5 µM"
compound=CCn1nc(-c2cccc(-c3cc(C(=O)NCCN4CCOCC4)cc(C(=O)NC4CC4)c3)c2)cc(NC(=O)Nc2c(Cl)cncc2Cl)c1=O measurementtype=IC50 recordedmeasurement="> 1 µM"

Which IC50 is reported for this compound? `CCn1nc(-c2cccc(-c3cc(C(=O)NC4CC4)cc(C(=O)NC4CCN(Cc5ccccc5)CC4)c3)c2)cc(NC(=O)Nc2c(Cl)cncc2Cl)c1=O`
> 1 µM

Which IC50 is reported for this compound? `O=C(c1nc(NCc2cncc(F)c2)nc2ccsc12)N1CCCC1`
< 0.01 µM

Which IC50 is reported for this compound? `CCn1nc(-c2cccc(-c3ccc(CC(=O)NCCN4CCCCC4)cc3)c2)cc(NC(=O)Nc2c(Cl)cncc2Cl)c1=O`
0.09 µM
